# binding signal per record follows
# assayTarget: T1, RBFOX1 RRM RbFoxmut (Fox-RRM*) (Homo sapiens, UniProt Q9NWB1 109-208, R118D;E147R;N151S;E152T)
# T1 sequence: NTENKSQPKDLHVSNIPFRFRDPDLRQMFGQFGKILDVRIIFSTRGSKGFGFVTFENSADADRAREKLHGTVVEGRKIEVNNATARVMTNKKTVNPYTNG
# protocolNotes: EMSA; HiTS-Eq, 1 nM pool, 10 min; buffer printed only for the single-RNA assays: 10 mM Tris pH 7.5, 150 mM NaCl, 3.4 mM EDTA, 0.001% NP-40, 30 C
# recordedConditions: tags: His6 N-terminal (pET28a); label: 5' 32P
In all, about 16,000 sequences were measured (“ka relative to ugcaugu”: median about 0.096, highest 2% from about 0.35 on). The sample holds the highest values, similar sequences and a random draw of the others, so the mix is not that of the screen.

- binder: "GGAUUGG (DNA:RNA) RNA: GGGAGACCGGAAUUCAGAUUGUCCGGAUUGGUUAAAUCCCGUCGUAGCCACCA DNA 1: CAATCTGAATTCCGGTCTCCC DNA 2: TGGTGGCTACGACGGGATT"
  binding signal: "0.219 KA relative to UGCAUGU"
- binder: "GUCUUGG (DNA:RNA) RNA: GGGAGACCGGAAUUCAGAUUGUCCGUCUUGGUUAAAUCCCGUCGUAGCCACCA DNA 1: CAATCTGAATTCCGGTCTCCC DNA 2: TGGTGGCTACGACGGGATT"
  binding signal: "0.403 KA relative to UGCAUGU"
- binder: "CGUCGUC (DNA:RNA) RNA: GGGAGACCGGAAUUCAGAUUGUCCCGUCGUCUUAAAUCCCGUCGUAGCCACCA DNA 1: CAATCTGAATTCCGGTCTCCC DNA 2: TGGTGGCTACGACGGGATT"
  binding signal: "0.186 KA relative to UGCAUGU"

Now consider a different binder.
Challenge: // lookup binding signal for GGUCUUG (DNA:RNA) RNA: GGGAGACCGGAAUUCAGAUUGUCCGGUCUUGUUAAAUCCCGUCGUAGCCACCA DNA 1: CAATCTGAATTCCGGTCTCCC DNA 2: TGGTGGCTACGACGGGATT
Response given: 0.368 KA relative to UGCAUGU
